Assay remarks: Estimated unbound maximum hepatic inlet concentration used for the static model
Conditions used: human, hepatic inlet (unbound), po, 2000 mg
Result type: Cmax (µM)
Could you give me the number in µM? Just the number is fine.

Asked: Which Cmax is listed for C=C(C)[C@@H]1CCC(C)=C[C@H]1c1c(O)cc(CCCCC)cc1O [CBD, cannabidiol, reference compound] ?
Given back: 2.54

----------
pKi for assorted molecules
Target or test system: UGT2B7 (Homo sapiens)
Assay remarks: IC50 determination and calculated Ki, morphine glucuronidation in HLM
Conditions used: read-out: Calculated Ki,u, Morphine-3-Glucuronide, Ki corrected with fu,inc
// scale note: pKi = -log10(conc_M); give the bare number

1) C=C(C)[C@@H]1CCC(CO)=C[C@H]1c1c(O)cc(CCCCC)cc1O [7-OH-CBD, 7-hydroxy-cannabidiol]
6.09

Asked: Looking for the measured pKi of `CCCCCc1cc(O)c2c(c1)OC(C)(C)[C@@H]1CCC(C(=O)O)=C[C@@H]21` , can you help?
Given back: 5.06

----------
Target or test system: UGT2B7 (Homo sapiens, UniProt P16662, Y268H)
Sequence (P16662 24-529 Y268H): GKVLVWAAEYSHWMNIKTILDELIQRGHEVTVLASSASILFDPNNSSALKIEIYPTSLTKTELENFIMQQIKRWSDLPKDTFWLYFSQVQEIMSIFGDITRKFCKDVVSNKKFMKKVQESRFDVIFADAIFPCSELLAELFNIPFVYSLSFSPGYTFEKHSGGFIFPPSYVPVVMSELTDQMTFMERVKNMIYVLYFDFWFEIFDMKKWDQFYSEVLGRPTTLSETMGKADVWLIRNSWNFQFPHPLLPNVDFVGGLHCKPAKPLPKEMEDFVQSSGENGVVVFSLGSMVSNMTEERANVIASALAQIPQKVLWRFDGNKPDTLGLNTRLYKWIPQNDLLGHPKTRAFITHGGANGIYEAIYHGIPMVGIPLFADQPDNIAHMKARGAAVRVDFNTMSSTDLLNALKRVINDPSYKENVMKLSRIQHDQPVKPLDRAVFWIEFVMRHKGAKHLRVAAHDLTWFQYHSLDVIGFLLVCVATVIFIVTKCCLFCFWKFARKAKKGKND
Assay remarks: IC50 determination, morphine glucuronidation in rUGT2B7-overexpressing HEK293 cell microsomes
Conditions used: read-out: IC50,u, Morphine-6-Glucuronide formation, corrected for non-specific binding with fu,inc (11-OH-THC fu,inc as surrogate for 11-COOH-THC and 7-OH-CBD)
Result type: pIC50
By convention, pIC50 is the negative base-10 log of a molar concentration.

1. C=C(C)[C@@H]1CCC(CO)=C[C@H]1c1c(O)cc(CCCCC)cc1O [7-OH-CBD, 7-hydroxy-cannabidiol]
5.52
2. CCCCCc1cc(O)c2c(c1)OC(C)(C)[C@@H]1CCC(C)=C[C@@H]21 [THC, Δ^9-tetrahydrocannabinol, reference compound]
6.47

The record that follows has no pIC50 shown yet.
Asked: Which pIC50 value is on record for `CCCCCc1cc(O)c2c(c1)OC(C)(C)[C@@H]1CCC(C(=O)O)=C[C@@H]21` ?
Given back: 5.37
